Tested on: α7 integrin (LacZ reporter in α7+/LacZ myotubes)
procedure.summary: Myotube α7 integrin FDG assay (Burkin assay in myotubes, 96-well)
Type: cell-based, mouse
condition.description: 0.5 uM, myotubes
Kind request: treat 1 as inclusive, so Burkin Assay in Myotubes (signal relative to DMSO) at 1 or higher is yes (1), anything lower is no (0).

COc1cccc(N2C(=O)CC(N3CCc4ccccc4C3)C2=O)c1 (centres unmarked) [MLS000769322-01] ... no (0)
C/C(=N\Nc1nncc2ccccc12)c1cccc(OC(F)F)c1 [MLS001175556-01] ... no (0)
O=Cc1cnc(N2CCCCC2)s1 [MLS000721730-01] ... no (0)
CS(=O)(=O)N(Cc1ccc(C(=O)NC2CCCC2)cc1)c1ccccc1 [MLS000714175-01] ... yes (1)
CCCCS(=O)(=O)N1CCCC(C(=O)NCCc2ccccc2)C1 (centres unmarked) [MLS001163121-01] ... yes (1)
